Test system: NCI-H2405
Protocol Summary: relative viability (nuclei count vs DMSO), 5 days (fraction); higher = more cells survive
Measurement Setup: first compound 0.02 µM
The following compounds are shown together with reported relative viability values.
Measurement Type: relative viability

[
  {
    "Compound": "CC(=O)O[C@@]12CO[C@@H]1C[C@H](O)[C@@]1(C)C(=O)[C@H](O)C3=C(C)[C@@H](OC(=O)[C@H](O)[C@@H](NC(=O)OC(C)(C)C)c4ccccc4)C[C@@](O)([C@@H](OC(=O)c4ccccc4)[C@H]21)C3(C)C [Docetaxel] + O=C(CCCCCCC(=O)Nc1ccccc1)NO [Vorinostat] (partner 1 µM)",
    "Target Or System": "NCI-H2405",
    "Measurement Type": "relative viability",
    "Reported": 0.335
  },
  {
    "Compound": "CC(=O)O[C@@]12CO[C@@H]1C[C@H](O)[C@@]1(C)C(=O)[C@H](O)C3=C(C)[C@@H](OC(=O)[C@H](O)[C@@H](NC(=O)OC(C)(C)C)c4ccccc4)C[C@@](O)([C@@H](OC(=O)c4ccccc4)[C@H]21)C3(C)C [Docetaxel] + CC(=O)c1c(C)c2cnc(Nc3ccc(N4CCNCC4)cn3)nc2n(C2CCCC2)c1=O [Palbociclib] (partner 0.5 µM)",
    "Target Or System": "NCI-H2405",
    "Measurement Type": "relative viability",
    "Reported": 0.29
  },
  {
    "Compound": "CC(=O)O[C@@]12CO[C@@H]1C[C@H](O)[C@@]1(C)C(=O)[C@H](O)C3=C(C)[C@@H](OC(=O)[C@H](O)[C@@H](NC(=O)OC(C)(C)C)c4ccccc4)C[C@@](O)([C@@H](OC(=O)c4ccccc4)[C@H]21)C3(C)C [Docetaxel] + CS(=O)(=O)N1CCN(Cc2cc3nc(-c4cccc5[nH]ncc45)nc(N4CCOCC4)c3s2)CC1 [Pictilisib] (partner 1 µM)",
    "Target Or System": "NCI-H2405",
    "Measurement Type": "relative viability",
    "Reported": 0.182
  },
  {
    "Compound": "CC(=O)O[C@@]12CO[C@@H]1C[C@H](O)[C@@]1(C)C(=O)[C@H](O)C3=C(C)[C@@H](OC(=O)[C@H](O)[C@@H](NC(=O)OC(C)(C)C)c4ccccc4)C[C@@](O)([C@@H](OC(=O)c4ccccc4)[C@H]21)C3(C)C [Docetaxel] + Cc1nc(Nc2ncc(C(=O)Nc3c(C)cccc3Cl)s2)cc(N2CCN(CCO)CC2)n1 [Dasatinib] (partner 0.075 µM)",
    "Target Or System": "NCI-H2405",
    "Measurement Type": "relative viability",
    "Reported": 0.14
  }
]
